Each recorded value in this set is attributed to patent US20260007601A1.

Test: Encapsulation rate, drug loading concentration and total RNA concentration detection (RiboGreen)
Assay type: physicochemical
Conditions: difference of rates
Returns t if the recorded encapsulation rate higher than that of ALC-0315 is greater than or equal to 30%, and f otherwise.

INSERT INTO assay_data (query_smiles, category_label) VALUES
  ('CCCCCCCCC(CCCCCCCC)COC(=O)CCCCCN(CCCCCC(=O)OCC(CCCCCCCC)CCCCCCCC)CCN(C)CCO', 't'),
  ('CCCCCCCCCCCOC(=O)CCCCCN(CCCCCCCC(=O)OCC(CCCCCCCC)CCCCCCCC)CCN(C)CCO', 'f'),
  ('CCCCCCCCCCCOC(=O)CCCCCN(CCCCCCCC(=O)OC(CCCCCCCC)CCCCCCCC)CCN(C)CCO', 'f'),
  ('CCCCCCCCCCOC(=O)CCCN(CCCCCC(=O)OCC(CCCCCCCC)CCCCCCCC)CCN(C)CCO', 'f'),
  ('CCCCCCCCCCCOC(=O)CCCCCN(CCCCCCCC(=O)OC(CCCCCCC)CCCCCCC)CCN(C)CCO', 'f');
